Reported IC50 is given for each of the following molecules.
# Target entity: Active Human ERK2 (hERK2) (Homo sapiens (Human))
# Sequence (P28482 whole entry): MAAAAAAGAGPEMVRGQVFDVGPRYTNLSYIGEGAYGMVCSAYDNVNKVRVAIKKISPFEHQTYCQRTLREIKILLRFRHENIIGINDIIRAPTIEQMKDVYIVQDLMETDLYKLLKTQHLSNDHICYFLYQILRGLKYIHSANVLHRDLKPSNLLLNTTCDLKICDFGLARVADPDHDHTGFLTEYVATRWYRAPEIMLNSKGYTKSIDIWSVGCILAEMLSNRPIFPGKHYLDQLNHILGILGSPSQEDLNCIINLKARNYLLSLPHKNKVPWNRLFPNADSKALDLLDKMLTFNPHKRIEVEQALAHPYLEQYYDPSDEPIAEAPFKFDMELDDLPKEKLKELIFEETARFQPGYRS
# Measurement description: Active Human ERK2 (hERK2) Activity Assay (IMAP-FP)
# Type: biochemical
# Condition label: phosphorylated active hERK2, 30 μM ATP; average; read-out: ERK 2 Human average IC50
# Description: Assays Active Human ERK2 (hERK2) Activity Assay: Activated ERK2 activity was determined in an IMAP-FP assay (Molecular Devices). […] The final reaction in each well of 25 μL consists of 0.5 nM hERK2, 900 nM unlabeled peptide, 80 nM labeled-peptide, and 30 μM ATP. […] Plates were read on EnVision reader after 60 minutes binding equilibration using Fluorescence Polarization protocol (Perkin Elmer).

| Molecule | Target entity | IC50, nM |
| --- | --- | --- |
| COc1ccc(-c2n[nH]c3cc(NC(=O)NCc4ccc(F)cc4)ncc23)cc1 | Active Human ERK2 (hERK2) (Homo sapiens (Human)) | 3.67 |
| Cc1cc(-c2n[nH]c3cc(NC(=O)NCc4cccc(NS(C)(=O)=O)c4)ncc23)ccn1 | Active Human ERK2 (hERK2) (Homo sapiens (Human)) | 0.34 |
| COC[C@@H](NC(=O)Nc1cc2[nH]nc(C3=NOC(C)C3)c2cn1)c1ccccc1 (some centres unmarked) | Active Human ERK2 (hERK2) (Homo sapiens (Human)) | 23.8 |
| Cc1cc(-c2n[nH]c3cc(NC(=O)NCc4ccsc4)ncc23)ccn1 | Active Human ERK2 (hERK2) (Homo sapiens (Human)) | 0.385 |
| Cc1cc(-c2n[nH]c3cc(NC(=O)NC(C)c4ccc(F)c(F)c4)ncc23)ccn1 (centres unmarked) | Active Human ERK2 (hERK2) (Homo sapiens (Human)) | 0.998 |
| C[C@@H](NC(=O)Nc1cc2[nH]nc(-c3ccnc(F)c3)c2cn1)c1ccccc1 | Active Human ERK2 (hERK2) (Homo sapiens (Human)) | 0.251 |
| C[C@@H](NC(=O)Nc1cc2[nH]nc(-c3ccnc(F)c3)c2cn1)c1ccc(F)c(Cl)c1 | Active Human ERK2 (hERK2) (Homo sapiens (Human)) | 1.91 |
| C[C@@H](NC(=O)Nc1cc2[nH]nc(-c3cnc(-n4cccn4)nc3)c2cn1)c1ccccc1 | Active Human ERK2 (hERK2) (Homo sapiens (Human)) | 4.44 |
| Cc1cc(-c2n[nH]c3cc(NC(=O)NC4CNc5ccccc5C4)ncc23)ccn1 (centres unmarked) | Active Human ERK2 (hERK2) (Homo sapiens (Human)) | 0.958 |
| Cc1cc(-c2n[nH]c3cc(NC(=O)NCc4ccccc4OC(F)(F)F)ncc23)ccn1 | Active Human ERK2 (hERK2) (Homo sapiens (Human)) | 0.605 |
| Cc1cc(-c2n[nH]c3cc(NC(=O)NCC(F)(F)CO)ncc23)ccn1 | Active Human ERK2 (hERK2) (Homo sapiens (Human)) | 3.81 |
| Cc1cc(-c2n[nH]c3cc(NC(=O)NCc4ccc(F)cn4)ncc23)ccn1 | Active Human ERK2 (hERK2) (Homo sapiens (Human)) | 2.35 |
| CNC(=O)CNC(=O)Nc1cc2[nH]nc(-c3ccnc(C)c3)c2cn1 | Active Human ERK2 (hERK2) (Homo sapiens (Human)) | 43.2 |
| Cc1cc(-c2n[nH]c3cc(NC(=O)NC(C)(C)C)ncc23)ccn1 | Active Human ERK2 (hERK2) (Homo sapiens (Human)) | 32.6 |
| Cc1cc(-c2n[nH]c3cc(NC(=O)NC4CC(=O)Nc5ccccc54)ncc23)ccn1 (centres unmarked) | Active Human ERK2 (hERK2) (Homo sapiens (Human)) | 5.72 |
| Cc1cc(-c2n[nH]c3cc(NC(=O)NCc4ccc[n+]([O-])c4)ncc23)ccn1 | Active Human ERK2 (hERK2) (Homo sapiens (Human)) | 11.6 |
| Cc1cc(-c2n[nH]c3cc(NC(=O)N[C@@H](C)c4ccc(C#N)cc4)ncc23)ccn1 | Active Human ERK2 (hERK2) (Homo sapiens (Human)) | 42.5 |

Origin of the recorded values: patent US9023865B2
